- target_desc: feline FcRn complex (FcRn-α subunit and β-microglobulin) (feline)
- assay_procedure: SPR (Biacore), FcRn on SA chip, pH 6
measurement_type: Kd (nM)
Report as a plain number; the unit nM is understood.

Value lookup for Kd; key = feline IgG1a mutant ID No. 369: S252Y, S434R, P247L (antibody, part only; not given: Variable domains, not shown: another chain or arm of the molecule) constant: ASTTAPSVFPLAPSCGTTSGATVALACLVLGYFPEPVTVSWNSGALTSGVHTFPAVLQASGLYSLSSMVTVPSSRWLSDTFTCNVAHPPSNTKVDKTVRKTDHPPGPKPCDCPKCPPPEMLGGPSIFIFPPKLKDTLYISRTPEVTCLVVDLGPDDSDVQITWFVDNTQVYTAKTSPREEQFNSTYRVVSVLPILHQDWLKGKEFKCKVNSKSLPSPIERTISKAKGQPHEPQVYVLPPAQEELSRNKVSVTCLIKSFHPPDIAVEWEITGQPEPENNYRTTPPQLDSDGTYFVYSKLSVDRSHWQRGNTYTCSVSHEALHRHHTQKSLTQSPGK 0.442

Next up: feline IgG1a mutant ID No. 252: S428M, S434F (antibody, part only; not given: variable domains and light chain, not shown: another chain or arm of the molecule) constant: ASTTAPSVFPLAPSCGTTSGATVALACLVLGYFPEPVTVSWNSGALTSGVHTFPAVLQASGLYSLSSMVTVPSSRWLSDTFTCNVAHPPSNTKVDKTVRKTDHPPGPKPCDCPKCPPPEMLGGPSIFIFPPKPKDTLSISRTPEVTCLVVDLGPDDSDVQITWFVDNTQVYTAKTSPREEQFNSTYRVVSVLPILHQDWLKGKEFKCKVNSKSLPSPIERTISKAKGQPHEPQVYVLPPAQEELSRNKVSVTCLIKSFHPPDIAVEWEITGQPEPENNYRTTPPQLDSDGTYFVYSKLSVDRSHWQRGNTYTCSVMHEALHFHHTQKSLTQSPGK 0.19
